Origin of the recorded values: patent EP2351737A1

# target under test: Human Norepinephrine Transporter (hNET) (Homo sapiens)
# Sequence (P23975 whole entry): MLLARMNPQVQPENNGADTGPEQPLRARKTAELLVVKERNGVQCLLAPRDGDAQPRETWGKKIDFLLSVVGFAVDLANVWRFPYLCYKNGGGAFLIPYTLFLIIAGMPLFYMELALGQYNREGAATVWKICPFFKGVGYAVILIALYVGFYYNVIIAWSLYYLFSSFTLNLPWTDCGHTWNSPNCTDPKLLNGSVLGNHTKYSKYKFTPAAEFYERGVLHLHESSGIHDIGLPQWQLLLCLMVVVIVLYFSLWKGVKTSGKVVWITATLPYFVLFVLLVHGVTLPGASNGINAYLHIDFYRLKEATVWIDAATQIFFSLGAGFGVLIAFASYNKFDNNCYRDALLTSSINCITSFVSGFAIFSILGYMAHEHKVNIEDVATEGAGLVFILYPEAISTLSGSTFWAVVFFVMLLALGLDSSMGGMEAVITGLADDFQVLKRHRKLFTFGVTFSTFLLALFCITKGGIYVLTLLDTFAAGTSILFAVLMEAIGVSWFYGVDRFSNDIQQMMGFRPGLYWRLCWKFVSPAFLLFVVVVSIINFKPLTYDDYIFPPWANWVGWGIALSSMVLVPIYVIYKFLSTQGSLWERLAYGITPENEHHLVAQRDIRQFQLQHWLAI
# assay method text: Human Norepinephrine Transporter (hNET) Scintillation Proximity Assay (SPA), competition with [3H]-Nisoxetine
# test parameters: pKi NET, membranes of HEK-293 cells expressing recombinant hNET, Ki by Cheng-Prusoff
Where a name gives a salt, the structure may show the parent alone.
Could you mark each record Y if its Ki falls strictly under 60 nM, and N if it equals or exceeds it?

Task: Determine whether this compound shows Ki lower than 60 nM (ties excluded): CNCC[C@H](c1ccccc1)c1cc(OC)c2[nH]ncc2c1 [Compound 83]
Output: Y

Task: Now consider CNCCC(c1ccc2[nH]ccc2c1)c1ccc2nccnc2c1 (stereo not shown) [Compound 123] and answer again.
Output: N

Task: Try this compound next: CNCCC(c1ccccc1)c1ccc2[nH]nc(OC(C)C)c2c1 (stereo not shown) [Compound 80]
Output: N

Task: And the next one, CCOc1n[nH]c2ccc(C(CCNC)c3ccccc3)cc12 (stereo not shown) [Compound 79] ?
Output: N

Task: Would you kindly repeat that for CNCCC(c1ccccc1)c1ccc2[nH]c(C#N)cc2c1 (stereo not shown) [Compound 128] ?
Output: Y

Task: Entry CNCCC(c1ccccc1)c1ccc2[nH]ccc2c1F (stereo not shown) [Compound 97] please
Output: Y

Task: Item: CNCCC(c1ccccc1)c1cc(F)c2c(c1)c(C#N)cn2C (stereo not shown) [Compound 127]
Output: Y

Task: Would you mind doing CNCCC(c1ccccc1)c1cc(C)c2[nH]ncc2c1 (stereo not shown) [Compound 76] as well?
Output: Y

Task: Note, next up: CNCCC(c1ccccc1)c1ccc2occc2c1 (stereo not shown) [Compound 141]
Output: Y

Task: Can you check CNCCC(c1ccccc1)c1ccc2[nH]cc(S(=O)(=O)N(C)C)c2c1 (stereo not shown) [Compound 90] next?
Output: N

Task: // same read-out, input: NCCC(c1ccc2ncccc2c1)c1ccc2[nH]ccc2c1 (stereo not shown) [Compound 120]
Output: N

Task: # iterate: CNCCC(c1ccc2[nH]ccc2c1)c1ccc2sccc2c1 (stereo not shown) [Compound 116]
Output: Y

Task: Next compound up: CNCCC(c1ccccc1)c1cc2cc[nH]c2cc1F (stereo not shown) [Compound 102]
Output: Y

Task: And the next one, NCCC(c1ccccc1)c1cc(Cl)c2[nH]c(C(N)=O)cc2c1 (stereo not shown) [Compound 103] ?
Output: Y

Task: Another: CNCCC(c1ccccc1)c1ccc2[nH]ncc2c1 (stereo not shown) [Compound 51, hydrochloride]
Output: Y

Task: How about this compound: CNCCC(c1ccccc1)c1cc(F)c2[nH]cc(C#N)c2c1 (stereo not shown) [Compound 19]
Output: Y

Task: Can you check CNCCC(c1ccc2[nH]ccc2c1)c1cccc2cc[nH]c12 (stereo not shown) [Compound 121] next?
Output: Y

Task: Try CNCCC(c1ccccc1)c1cc(Cl)c2[nH]ncc2c1 (stereo not shown) [Compound 77] next.
Output: Y

Task: Next entry: CNCCC(c1ccc2[nH]ccc2c1)c1nccs1 (stereo not shown) [Compound 139]
Output: N

Task: Please answer likewise for CNCCC(c1cccc(F)c1)c1cc(Cl)c2[nH]ccc2c1 (stereo not shown) [Compound 108]
Output: Y

Task: Then CN(C)CCC(c1ccccc1)c1ccc2[nH]ccc2c1 (stereo not shown) [Compound 113] ?
Output: N

Task: Another compound to check: CNCC[C@@H](c1ccccc1)c1ccc2[nH]nc(Cl)c2c1 [Compound 60]
Output: Y
